Where do these numbers come from? They come from patent US11628228B2.

Entries and their Spleen uptake values follow.
System: S180-bearing mice
protocol-notes: Bio-distribution in tumor-bearing mice
Format: in vivo
condition-summary: S180-bearing mice, tail vein, 60 min
Provide the reading as a plain figure in % ID/g.

Example results:
(Q) Jot down Spleen uptake (S180-bearing mice) of O=C(CC[N+]#[C][99Tc-5]([C]#[N+]CCC(=O)NC1C(O)OC(CO)C(O)C1O)([C]#[N+]CCC(=O)NC1C(O)OC(CO)C(O)C1O)([C]#[N+]CCC(=O)NC1C(O)OC(CO)C(O)C1O)([C]#[N+]CCC(=O)NC1C(O)OC(CO)C(O)C1O)[C]#[N+]CCC(=O)NC1C(O)OC(CO)C(O)C1O)NC1C(O)OC(CO)C(O)C1O (stereo not shown) [[^99mTc-(CN2DG)6]^+] .
(A) 0.13

(Q) Jot down Spleen uptake (S180-bearing mice) of O=C(CCCC[N+]#[C][99Tc-5]([C]#[N+]CCCCC(=O)NC1C(O)OC(CO)C(O)C1O)([C]#[N+]CCCCC(=O)NC1C(O)OC(CO)C(O)C1O)([C]#[N+]CCCCC(=O)NC1C(O)OC(CO)C(O)C1O)([C]#[N+]CCCCC(=O)NC1C(O)OC(CO)C(O)C1O)[C]#[N+]CCCCC(=O)NC1C(O)OC(CO)C(O)C1O)NC1C(O)OC(CO)C(O)C1O (stereo not shown) [[^99mTc-(CN4DG)6]^+] .
(A) 0.21

(Q) Jot down Spleen uptake (S180-bearing mice) of O=C(CCCCC[N+]#[C][99Tc-5]([C]#[N+]CCCCCC(=O)NC1C(O)OC(CO)C(O)C1O)([C]#[N+]CCCCCC(=O)NC1C(O)OC(CO)C(O)C1O)([C]#[N+]CCCCCC(=O)NC1C(O)OC(CO)C(O)C1O)([C]#[N+]CCCCCC(=O)NC1C(O)OC(CO)C(O)C1O)[C]#[N+]CCCCCC(=O)NC1C(O)OC(CO)C(O)C1O)NC1C(O)OC(CO)C(O)C1O (stereo not shown) [[^99mTc-(CN5DG)6]^+] .
(A) 0.28

---
(Q) Jot down Spleen uptake (S180-bearing mice) of O=C(CCC[N+]#[C][99Tc-5]([C]#[N+]CCCC(=O)NC1C(O)OC(CO)C(O)C1O)([C]#[N+]CCCC(=O)NC1C(O)OC(CO)C(O)C1O)([C]#[N+]CCCC(=O)NC1C(O)OC(CO)C(O)C1O)([C]#[N+]CCCC(=O)NC1C(O)OC(CO)C(O)C1O)[C]#[N+]CCCC(=O)NC1C(O)OC(CO)C(O)C1O)NC1C(O)OC(CO)C(O)C1O (stereo not shown) [[^99mTc-(CN3DG)6]^+] .
(A) 0.15
